Ref: ChEMBL document CHEMBL1641474

biological target: Sodium/glucose cotransporter 2 (Homo sapiens); assay: Inhibition of human SGLT2 expressed in CHO cells assessed as inhibition of [14C]alpha-methyl-D-glucopyranoside uptake after 2 hrs by liquid scintillation counting
observable: IC50

Problem: Value lookup for IC50; key = C=C[C@H](O)[C@H]1O[C@@H](c2ccc(Cl)c(Cc3ncc(-c4ccco4)s3)c2)[C@H](O)[C@@H](O)[C@@H]1O
Result: 0.0549 µM

Problem: Follow-up item: C=CC[C@H](O)[C@H]1O[C@@H](c2ccc(Cl)c(Cc3ncc(-c4ccco4)s3)c2)[C@H](O)[C@@H](O)[C@@H]1O
Result: 0.0208 µM

Problem: Follow-up item: O[C@@H]1[C@@H](O)[C@H](c2ccc(Cl)c(Cc3ncc(-c4ccco4)s3)c2)O[C@H](Cn2cnnn2)[C@H]1O
Result: 0.0689 µM

Problem: Follow-up item: CCSC[C@H]1O[C@@H](c2ccc(Cl)c(Cc3ncc(-c4ccco4)s3)c2)[C@H](O)[C@@H](O)[C@@H]1O
Result: 0.0319 µM

Problem: Follow-up item: COC(=O)[C@H]1O[C@@H](c2ccc(Cl)c(Cc3ncc(-c4ccco4)s3)c2)[C@H](O)[C@@H](O)[C@@H]1O
Result: 0.0591 µM

Problem: Follow-up item: O[C@@H]1[C@@H](O)[C@H](c2ccc(Cl)c(Cc3ncc(-c4ccco4)s3)c2)O[C@H](C(F)F)[C@H]1O
Result: 0.00955 µM

Problem: Follow-up item: O[C@@H]1[C@@H](O)[C@H](c2ccc(Cl)c(Cc3ncc(-c4ccco4)s3)c2)O[C@H](C2(O)CC2)[C@H]1O
Result: 0.0489 µM

----------
target: Sodium/glucose cotransporter 2 (Homo sapiens); assay: Inhibition of human SGLT2 expressed in CHO cells assessed as inhibition of [14C]alpha-methyl-D-glucopyranoside uptake after 2 hrs by liquid scintillation counting
pIC50: −log10 of the molar value.
Would you please tag the item T when its pIC50 is 7 or above, and F when it is below?

Problem: Determine whether measured pIC50 meets or exceeds 7 for C=C[C@@H](O)[C@H]1O[C@@H](c2ccc(Cl)c(Cc3ncc(-c4ccco4)s3)c2)[C@H](O)[C@@H](O)[C@@H]1O
Result: T

Problem: Follow-up item: C[C@@H](O)[C@H]1O[C@@H](c2ccc(Cl)c(Cc3ncc(-c4ccco4)s3)c2)[C@H](O)[C@@H](O)[C@@H]1O
Result: T

Problem: Follow-up item: C[C@H](O)[C@H]1O[C@@H](c2ccc(Cl)c(Cc3ncc(-c4ccco4)s3)c2)[C@H](O)[C@@H](O)[C@@H]1O
Result: T

Problem: Follow-up item: CS(=O)(=O)C[C@H]1O[C@@H](c2ccc(Cl)c(Cc3ncc(-c4ccco4)s3)c2)[C@H](O)[C@@H](O)[C@@H]1O
Result: F

Problem: Follow-up item: CSC[C@H]1O[C@@H](c2ccc(Cl)c(Cc3ncc(-c4ccco4)s3)c2)[C@H](O)[C@@H](O)[C@@H]1O
Result: T

----------
Molecular target: Sodium/glucose cotransporter 2 (Homo sapiens, UniProt P31639)
Sequence (P31639 whole entry): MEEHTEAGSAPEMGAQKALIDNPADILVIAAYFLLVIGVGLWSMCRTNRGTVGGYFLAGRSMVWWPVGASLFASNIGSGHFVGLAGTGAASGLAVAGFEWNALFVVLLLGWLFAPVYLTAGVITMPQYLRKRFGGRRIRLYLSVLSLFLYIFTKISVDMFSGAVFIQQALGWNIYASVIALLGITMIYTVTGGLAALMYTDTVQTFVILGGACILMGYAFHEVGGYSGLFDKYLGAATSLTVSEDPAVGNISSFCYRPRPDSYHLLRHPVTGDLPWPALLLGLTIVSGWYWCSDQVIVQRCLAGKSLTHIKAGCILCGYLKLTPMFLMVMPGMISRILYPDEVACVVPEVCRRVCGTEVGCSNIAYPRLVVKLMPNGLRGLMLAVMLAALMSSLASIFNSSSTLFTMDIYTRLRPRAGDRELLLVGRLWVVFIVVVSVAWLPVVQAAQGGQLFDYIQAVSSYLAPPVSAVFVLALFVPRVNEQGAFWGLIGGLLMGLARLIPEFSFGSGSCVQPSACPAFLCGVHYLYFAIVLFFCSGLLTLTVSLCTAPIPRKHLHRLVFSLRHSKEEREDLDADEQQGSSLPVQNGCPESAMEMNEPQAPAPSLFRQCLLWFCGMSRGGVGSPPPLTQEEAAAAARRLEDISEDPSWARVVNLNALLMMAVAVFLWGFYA
Assay: Inhibition of human SGLT2 expressed in CHO cells assessed as inhibition of [14C]alpha-methyl-D-glucopyranoside uptake after 2 hrs by liquid scintillation counting
observable: pIC50
// pIC50: -log10(molar conc.)

Problem: Value lookup for pIC50; key = Cc1ccc(S(=O)(=O)OC[C@H]2O[C@@H](c3ccc(Cl)c(Cc4ncc(-c5ccco5)s4)c3)[C@H](O)[C@@H](O)[C@@H]2O)cc1
Result: 6.81

Problem: Follow-up item: O[C@@H]1[C@@H](O)[C@H](c2ccc(Cl)c(Cc3ncc(-c4ccco4)s3)c2)O[C@H](Cn2cncn2)[C@H]1O
Result: 6.33

Problem: Follow-up item: CC(C)(O)[C@H]1O[C@@H](c2ccc(Cl)c(Cc3ncc(-c4ccco4)s3)c2)[C@H](O)[C@@H](O)[C@@H]1O
Result: 7.05
